Hey, just so you know, these numbers are from ChEMBL document CHEMBL1201862.

Tested on: TK-10
test-description: NCI tumour cell line growth inhibition, 48 h
Activity calls are given as the source filed them. Rule as the data show it: active = GI50 up to about 1.1 µM and inactive = higher.
Your reply should match one of these outcome classes. active, inactive

Example cases with answers are listed next.
* COc1cccc2c1C(=O)c1c(O)c3c(c(O)c1C2=O)C[C@@](O)(C(=O)CO)CC3OC1CC(NCCCCC(OC(C)=O)OC(C)=O)C(O)C(C)O1 (stereo partly specified) | active
* CCOC(=O)Nc1cc2c(c(N)n1)N=C(c1ccc(Cl)cc1Cl)CN2 | inactive
* CCOC(=O)C(Br)(C(N)=O)C1(O)OC(c2ccccc2)=C(Br)C1=O (stereo unspecified) | inactive
* CCOC(=O)C1(C(=O)OCC)COS(=O)OC1 | inactive
* COc1cc2c(cc1OC)[Se]c1cc(OC)c(OC)cc1[Se]2 | inactive

Turning now to a further record.
Problem: Please state the recorded outcome for this compound: N=C(N)NC(=N)Nc1ccccc1.Sc1nc2ccccc2s1
Result: inactive
